Origin of the recorded values: paper PMC3608738

target: human guanine N-7 RNA MTase (hRNMTase) (Homo sapiens, UniProt O43148); experiment: Inhibition of human RNA MTase; format: biochemical
Sequence (O43148 whole entry): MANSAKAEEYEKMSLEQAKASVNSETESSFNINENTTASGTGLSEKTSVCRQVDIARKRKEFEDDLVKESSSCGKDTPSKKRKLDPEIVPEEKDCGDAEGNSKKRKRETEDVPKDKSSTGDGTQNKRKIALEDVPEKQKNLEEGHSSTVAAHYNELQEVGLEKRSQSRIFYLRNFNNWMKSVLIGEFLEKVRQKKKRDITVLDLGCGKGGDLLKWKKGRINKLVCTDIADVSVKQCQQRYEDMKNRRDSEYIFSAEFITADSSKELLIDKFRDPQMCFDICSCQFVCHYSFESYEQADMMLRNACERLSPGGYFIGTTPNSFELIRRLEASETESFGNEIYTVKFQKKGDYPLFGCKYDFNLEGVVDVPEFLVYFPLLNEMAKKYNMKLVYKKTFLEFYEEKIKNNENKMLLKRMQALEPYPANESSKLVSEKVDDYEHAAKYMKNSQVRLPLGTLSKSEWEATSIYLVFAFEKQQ
attribute measured: IC50

Which IC50 reading was recorded for the compound Nc1ncnc2c1ncn2[C@@H]1O[C@H](C[C@@H](N)CC[C@H](N)C(=O)O)[C@@H](O)[C@H]1O [SIN, Sinefungin, reference compound] ?
~41.2 µM
